Data origin: patent US8853193B2

target.under.test: human Mnk2a (Homo sapiens (Human))
Sequence (Q9HBH9 whole entry): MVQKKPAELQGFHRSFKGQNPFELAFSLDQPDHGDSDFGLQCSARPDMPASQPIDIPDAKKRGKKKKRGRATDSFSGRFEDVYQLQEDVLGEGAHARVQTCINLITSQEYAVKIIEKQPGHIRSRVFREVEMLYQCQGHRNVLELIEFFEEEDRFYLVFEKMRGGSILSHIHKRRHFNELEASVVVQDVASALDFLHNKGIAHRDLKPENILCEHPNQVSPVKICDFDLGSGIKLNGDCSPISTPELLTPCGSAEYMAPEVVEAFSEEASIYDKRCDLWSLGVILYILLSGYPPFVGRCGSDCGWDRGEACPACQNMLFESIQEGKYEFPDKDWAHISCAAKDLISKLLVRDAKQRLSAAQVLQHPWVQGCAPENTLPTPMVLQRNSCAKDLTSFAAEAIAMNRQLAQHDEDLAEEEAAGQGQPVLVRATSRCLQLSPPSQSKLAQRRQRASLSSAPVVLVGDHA
experimental.details: Mnk2a in vitro kinase assay (indirect competitive fluorescence polarization)
reported.conditions: pre-activated GST-Mnk2a 2.5 nM, 20 μM ATP, 30 μM substrate peptide; read-out: MNK2 IC50
Below: a set of entries, each annotated with reported pIC50.
Schema: pIC50 number; meaning minus log10 of the concentration expressed in molar units.

Cc1c(C(=O)NCCCN(C)C)sc2ncnc(Nc3ccc(F)cc3OC(C)CN)c12 (stereo not shown) ... 7.39

Please report pIC50 with human Mnk2a (Homo sapiens (Human)) for item COCC(C)Oc1ncccc1Nc1ncnc2sc(C(N)=O)c(C)c12 (stereo not shown) . 7.59

Please report pIC50 with human Mnk2a (Homo sapiens (Human)) for item CCOCC(COCC)Oc1cc(F)ccc1Nc1ncnc2sc(C(N)=O)c(C)c12 . 6.53

Please report pIC50 with human Mnk2a (Homo sapiens (Human)) for item Cc1c(C(=O)NC2CCN(C)CC2)sc2ncnc(Nc3ccc(C#N)cc3OC(CF)CF)c12 . 7.89

Please report pIC50 with human Mnk2a (Homo sapiens (Human)) for item Cc1c(C(=O)NCC#CCN(C)C)sc2ncnc(Nc3ccc(C#N)cc3OC(CF)CF)c12 . 7.60

Please report pIC50 with human Mnk2a (Homo sapiens (Human)) for item CCNC(=O)c1sc2ncnc(Nc3cccnc3OC(C)C)c2c1C . 7.59

Please report pIC50 with human Mnk2a (Homo sapiens (Human)) for item Cc1c(C(=O)NCC2CNCCO2)sc2ncnc(Nc3cccnc3OC(C)C)c12 (stereo not shown) . 7.60

Please report pIC50 with human Mnk2a (Homo sapiens (Human)) for item Cc1c(C(=O)O)sc2ncnc(Nc3ccc(F)cc3OCC(F)F)c12 . 7.89

Please report pIC50 with human Mnk2a (Homo sapiens (Human)) for item Cc1c(C(N)=O)sc2ncnc(Nc3ccc(F)cc3OC(C)CF)c12 (stereo not shown) . 8.52

Please report pIC50 with human Mnk2a (Homo sapiens (Human)) for item Cc1c(C(=O)O)sc2ncnc(Nc3ccc(F)cc3OCC3CC3(F)F)c12 (stereo not shown) . 8.10
